Recorded melting point values for a group of molecules are listed next.

Before answering, review these 4 worked examples.
>  <molecule>
O=C1c2ccc(=O)[nH]c2CC2CCCCC12 (stereo unspecified)

>  <melting point>
301 to 303 °C

$$$$
>  <molecule>
Cc1c(C)c2c(c(C)c1N)CC(C)(CN1CCN(CC(c3ccccc3)c3ccccc3)CC1)O2 (stereo unspecified)

>  <melting point>
130 to 132 °C

$$$$
>  <molecule>
COc1ccc(-c2ccc(C(=O)Nc3ccc4cc(CN5CCCCCC5)cnc4c3C)cc2F)cc1

>  <melting point>
160 to 161 °C

$$$$
>  <molecule>
O=S1NC(Cc2cc3cc(F)ccc3o2)=NO1 (stereo unspecified)

>  <melting point>
144 to 145 °C

$$$$

Note: attention shifts to another entry.
Entry COC(=O)/C=C/c1c(F)cc2nn(C)cc2c1C(=O)OC ; melting point = 130 to 132 °C

* * *

Listed here are molecules together with their documented melting point.

Example entries begin here.
>  <molecule>
COc1cc(Cl)cc(C(=O)C(F)(F)F)c1N

>  <melting point>
124 to 126 °C

$$$$
>  <molecule>
COc1cc(OC)c(-c2nc(NC(=O)c3cc4cc(C)cc(C)c4n3CC(=O)O)sc2CCC2CCCCC2)cc1Br

>  <melting point>
221 to 222 °C

$$$$
>  <molecule>
Nc1ccc2nccn2n1

>  <melting point>
198 to 202 °C

$$$$
>  <molecule>
COc1ccc2c(c1)c(C)c(CCCO)n2Cc1ccc(Cl)cc1

>  <melting point>
118 °C

$$$$
>  <molecule>
CCOc1cc(-c2nnc3c4ccccc4c(OCc4ncnn4C)nn23)no1

>  <melting point>
223 to 225 °C

$$$$
>  <molecule>
CN(C(=O)Cc1[nH]c(=O)c2ccc(Cl)cc2c1-c1ccccc1)c1cc(C(F)(F)F)cc(C(F)(F)F)c1

>  <melting point>
181 to 182 °C

$$$$
>  <molecule>
CC12CC(=NO)C(C)(C)C1C(O)C2 (stereo not given)

>  <melting point>
130 to 133 °C

$$$$
>  <molecule>
O=C(OCC(O)c1ccccc1)c1ccc(-c2ccc(OCCCCCCO)cc2)cc1 (stereo not given)

>  <melting point>
148 to 150 °C

$$$$
>  <molecule>
Clc1ccc(-c2cc(Cl)c3ccccc3n2)cc1Cl

>  <melting point>
138 to 140 °C

$$$$

Okay, next one:
According to the records, this molecule Nc1cccc(C(=O)NCCCn2ccnc2)c1 displays melting point of 88 to 90 °C

* * *

assay endpoint: melting point

Consider O=S(=O)(NCCO)c1c[nH]c(-c2ccc(Cl)cc2)n1 . Its measured melting point is 210 to 212 °C

For Nc1ccc2ccc(Oc3cccc(Cl)c3)nc2n1 the compound record lists melting point as 166 °C

Record CCCCCCCCCCCCCCCC(=O)OCCCN(C)C , field melting point: 49 to 50 °C

COCCN(CCOC)C1CCN(c2ccc(NC(=O)c3cnn(-c4ccc(Cl)cc4)c3C)cc2C#N)CC1 has a reported melting point of 152 °C

// field: melting point; key: CS(=O)(=O)Nc1ccc(C=CC(=O)N2CCc3c([nH]c4ccccc34)C2c2ccc3c(c2)OCO3)cc1 (stereo not given) ; value = 203 °C

Record summary for O=C1Cc2cc(F)c(F)cc2N1 : reported melting point = 187 to 190 °C

The compound listed as CCCc1cc(Cl)c2oc(C(=O)c3ccc(OC)cc3)c(C)c2c1OC(=O)c1ccc(OC)cc1 shows melting point equal to 103 to 105 °C

Recorded melting point (compound O=C1c2ccc(Cl)cc2C(=O)N1c1ccc([N+](=O)[O-])cc1Cl ): 209 to 212 °C

Documented melting point of COc1ccc2c(c1)CCC1=C2CCC2(C)C(O)CCC12 (stereo not given) : 110 to 112 °C

So for c1cn2cc(-c3cnc4cc[nH]c4c3)cc(Nc3cc4n(n3)CCOC4)c2n1 , the logged melting point turned out to be 192 to 195 °C
